FYI, the data here is from PubChem BioAssay AID720647.

Tested on: Drosophila bursicon receptor LGR2 (rickets)
ASSAY DETAILS: inhibitors of bursicon-induced LGR2 CRE-luciferase signal, primary screen, cell-based, HEK293, CRE-luciferase reporter, bursicon stimulation (AID 720647);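 note: agonist challenge used bursicon conditioned medium at about half maximal strength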
CONDITION LABEL: bursicon-stimulated, 4 h, at 9.99 µM, hits give high values
The campaign covered roughly 380,000 compounds. About 1,300 (0.34%) were called active. Many of the other results were omitted from the sample, so actives are more common in it than they were.
ASSAY READOUT: inhibition (%)
All answers are understood in %, so give the number only.

Recorded inhibition, per entry:
CO[C@@H]1CN(C)C(=O)c2ccc(NC(C)=O)cc2OC[C@@H](C)N(CC2CC2)C[C@H]1C; -1.72
CCCNC(=O)N1[C@H](C#N)[C@@H](c2ccccc2C2=CCCCC2)[C@@H]1CO; 8.2

Attention now turns to another entry.
GET /values?readout=inhibition&item= O=C(CNCc1ccc(Cl)cc1)Nc1cccc(C(=O)O)c1 22.7

----------
The following compounds are listed with their measured inhibition values.
Test system: Drosophila bursicon receptor LGR2 (rickets)
ASSAY DETAILS: inhibitors of bursicon-induced LGR2 CRE-luciferase signal, primary screen, cell-based, HEK293, CRE-luciferase reporter, bursicon stimulation (AID 720647);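 note: agonist challenge used bursicon conditioned medium at about half maximal strength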
CONDITION LABEL: bursicon-stimulated, 4 h, at 9.99 µM, hits give high values
The whole screen tested about 380,000 compounds, of which about 1,300 (0.34%) were called active. The full list was thinned out, with actives kept by preference.
All answers are understood in %, so give the number only.

Can you share its inhibition? I mean this compound: O=C(C[C@H]1C=C[C@@H](NC(=O)Nc2cc(F)ccc2F)[C@H](CO)O1)NCCCN1CCOCC1 -7.04

What about O=C(Cc1cccnc1)N1CC(=O)N2[C@H](CO)[C@H](c3ccc(C#CC4CCCC4)cc3)[C@@H]2C1 ? -25.4

Now the same for Cc1ccc2oc(=O)c3cnn(CC(=O)N4CCCCCC4)c3c2c1 15.6

CC(C)CC#Cc1ccc([C@H]2[C@H]3CN(C(=O)CN4CCOCC4)CC(=O)N3[C@H]2CO)cc1 ? -1.92

----------
Tested on: Drosophila bursicon receptor LGR2 (rickets)
ASSAY DETAILS: inhibitors of bursicon-induced LGR2 CRE-luciferase signal, primary screen, cell-based, HEK293, CRE-luciferase reporter, bursicon stimulation (AID 720647);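 note: agonist challenge used bursicon conditioned medium at about half maximal strength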
CONDITION LABEL: bursicon-stimulated, 4 h, at 9.99 µM, hits give high values
Hit rate of the full screen: of about 380,000 compounds, about 1,300 (0.34%) were called active. The sample as a whole holds a higher share of actives than the screen did.
ASSAY READOUT: inhibition (%)
Write the answer as a number in %, unit excluded.

Cc1c(C(=O)NCCN(C)C)oc2ccc(S(=O)(=O)N3CCCC3)cc12; -6.68
COc1cc(Cl)c(C)cc1NC(=O)COC(=O)c1cc(SC)ccc1Cl; 7.1
N#C[C@@H]1[C@H](c2ccc(C#CC3CCCCC3)cc2)[C@@H](CO)N1S(=O)(=O)c1ccccc1; 61.9
C[C@H]1CN([C@@H](C)CO)C(=O)c2cccc(NC(=O)CCCCCC(=O)Nc3ccccc3N)c2O[C@H]1CN(C)C(=O)Nc1ccccc1; 0.187

Continue with the compound presented below.
Tell me reported inhibition for CN(C)CCNC(=O)c1ccc(Cl)c2cc3ccccc3nc12 , tested with Drosophila bursicon receptor LGR2 (rickets). 86.6

----------
System: Drosophila bursicon receptor LGR2 (rickets)
ASSAY DETAILS: inhibitors of bursicon-induced LGR2 CRE-luciferase signal, primary screen, cell-based, HEK293, CRE-luciferase reporter, bursicon stimulation (AID 720647);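 note: agonist challenge used bursicon conditioned medium at about half maximal strength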
CONDITION LABEL: bursicon-stimulated, 4 h, at 9.99 µM, hits give high values
In all, about 380,000 compounds went through this assay and about 1,300 (0.34%) were called active. The full list was thinned out, with actives kept by preference.
Collected inhibition values appear next to each entry.
Entry rule: numbers only, all in %.

Before answering, review these 2 worked examples.
CCNC(=O)C[C@@H]1CC[C@H]2[C@@H](COC[C@@H](O)CN2C(=O)c2cc(Cl)cc(Cl)c2)O1; 11.4
CCN(CC)C(=O)Cn1cc(S(=O)(=O)CC(=O)NCc2ccc3c(c2)OCO3)c2ccccc21; -11.7

// query inhibition value for entry CN(C)C(=O)c1cccc(-c2cnc3sc(NCc4ccc5c(c4)OCO5)nn23)c1 51.6
